experiment: in vivo; conditions: Sprague-Dawley, rat, po, 12 mg/kg
recordedEndpoint: AUC
Number plus unit, in that order.

Query: Name the recorded AUC of the molecule listed here: CCc1ccc(O[C@H](C)CCOc2ccc(CCC(=O)O)c(CC)c2)c(-c2ccccn2)c1
Result: 75500 ng·h/mL

* * *

Observed pIC50, system Peroxisome proliferator-activated receptor alpha (Homo sapiens).
Scale: pIC50 equals -log10([C]), with [C] in mol/L.

CCc1ccc(O[C@H](C)CCOc2ccc(CCC(=O)O)c(C)c2)c(-c2ccco2)c1    5.35
CCc1cc(OCC[C@@H](C)Oc2ccc(C(F)(F)F)cc2-c2ccccn2)ccc1CCC(=O)O    5.22
CCc1ccc(O[C@H](C)CCOc2ccc(CCC(=O)O)c(C)c2)c(-c2ncco2)c1    4.98
CCc1ccc(O[C@H](C)CCOc2ccc(CCC(=O)O)c(C)c2)c(-c2cocn2)c1    5.30
CCc1ccc(O[C@H](C)CCOc2ccc(CCC(=O)O)c(C)c2)c(-c2cscn2)c1    5.39
CCc1ccc(O[C@H](C)CCOc2ccc(CCC(=O)O)c(CC)c2)c(-c2ccccn2)c1    5.13
Cc1cc(OCC[C@@H](C)Oc2ccc(C(F)(F)F)cc2-c2ccccn2)ccc1CCC(=O)O    5.23

Query: Name the recorded pIC50 of the molecule listed here: CCc1ccc(O[C@H](C)CCOc2ccc(CCC(=O)O)c(C)c2)c(-c2ccsc2)c1
Result: 5.23

Cited source: ChEMBL document CHEMBL1139045
